# target_entity: NET (norepinephrine transporter) (Rattus norvegicus, UniProt Q63380)
# Construct: Cortex from rat brain was collected and homogenised; from tissue; host or cells: rat brain cortex
# Sequence (Q63380 1-617): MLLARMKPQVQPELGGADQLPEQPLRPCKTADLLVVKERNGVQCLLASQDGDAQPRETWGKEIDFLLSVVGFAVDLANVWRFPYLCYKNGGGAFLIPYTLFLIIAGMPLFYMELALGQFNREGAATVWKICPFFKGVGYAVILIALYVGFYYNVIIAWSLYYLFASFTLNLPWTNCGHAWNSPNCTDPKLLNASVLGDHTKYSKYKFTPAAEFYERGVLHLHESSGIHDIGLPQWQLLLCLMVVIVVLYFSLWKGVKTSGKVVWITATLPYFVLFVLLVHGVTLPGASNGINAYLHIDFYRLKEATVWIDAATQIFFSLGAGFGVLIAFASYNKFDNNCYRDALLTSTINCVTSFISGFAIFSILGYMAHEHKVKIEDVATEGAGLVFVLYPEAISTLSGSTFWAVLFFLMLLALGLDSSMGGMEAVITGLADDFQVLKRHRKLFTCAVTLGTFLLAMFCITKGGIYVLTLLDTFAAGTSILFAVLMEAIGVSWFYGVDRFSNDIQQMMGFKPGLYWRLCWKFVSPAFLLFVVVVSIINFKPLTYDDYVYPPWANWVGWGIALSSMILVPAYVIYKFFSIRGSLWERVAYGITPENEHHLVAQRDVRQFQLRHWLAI
# procedure_text: In vitro determination of NET reuptake inhibition ([3H]Nixosetine binding, rat brain cortex)
# condition_details: rat brain cortex, read-out: NET pIC50 (converted)
endpoint_name: IC50

molecule="O=C(NCc1ccc(F)cc1)N1CCN(CC2CC3c4ccccc4Cc4ccc(F)cc4C3O2)CC1 (stereo not drawn)" endpoint_name=IC50 result="> 10 µM"
molecule="O=C(Cc1cccs1)NC1CCN(CC2CC3c4ccccc4Cc4ccc(F)cc4C3O2)CC1 (stereo not drawn)" endpoint_name=IC50 result="> 10 µM"

Exam item: Read off the recorded IC50 for O=C(c1cccs1)N1CCN(CC2CC3c4ccccc4Cc4ccc(F)cc4C3O2)CC1 (stereo not drawn)
Marked response: > 10 µM

Reference source: patent US8569267B2
